- Measurement target: T1, Caspase-7 (UniProt P55210 24-303)
- T1 sequence (looked up): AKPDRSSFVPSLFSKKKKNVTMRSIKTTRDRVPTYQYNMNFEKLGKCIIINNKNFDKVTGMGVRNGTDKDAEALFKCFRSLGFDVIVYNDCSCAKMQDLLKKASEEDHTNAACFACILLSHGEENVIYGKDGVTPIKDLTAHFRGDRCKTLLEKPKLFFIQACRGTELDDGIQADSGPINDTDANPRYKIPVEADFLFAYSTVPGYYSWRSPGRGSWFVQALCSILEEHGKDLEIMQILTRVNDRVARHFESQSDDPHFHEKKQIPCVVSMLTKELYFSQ
- Procedure summary: cell-based or functional assay
Numbered stars: 1 amine (or outer) side, 2 acyl side, 3 side chain; on linkers, the order of the positions; unused ones are H or OH. Square brackets hold non-standard residues; d marks the D form. * marks the point of attachment. AAsp = aza-Asp, O=C(N(CC(=O)[*:3])N[*:1])[*:2]; CH═CH‑COOEt = CCOC(=O)/C=C/*; Cbz = O=C(OCc1ccccc1)*
Property name: k2 (M⁻¹ s⁻¹)

A. Cbz-Glu-Val-[AAsp]-{CH═CH‑COOEt} (SMILES CCOC(=O)/C=C/C(=O)N(CC(=O)O)NC(=O)[C@@H](NC(=O)[C@H](CCC(=O)O)NC(=O)OCc1ccccc1)C(C)C) [Cbz-Glu-Val-AAsp-CH═CH-COOEt]
B. Cbz-Val-[AAsp]-{CH═CH‑CH═CH‑CH3} [Cbz-Val-AAsp-CH═CH-CH═CH-CH3]
C. Cbz-LET[AAsp]-{CH═CH‑CONHCH2‑4‑F‑Ph} [Cbz-Leu-Glu-Thr-AAsp-CH═CH-CONHCH2-4-F-Ph]
Exercise: Put the binders in ascending order of k2. Rank them, then answer with their labels in that order.
Key: B, C, A
